Where do these numbers come from? They come from patent US20250144066A1.

System: MDCK
cond: Neutral Red (Toxicity)
measure: CC50

q: Returns the measured CC50 for the input molecule. Input: COc1c(C)c2c(c(O)c1C/C=C(\C)CCC(=O)O)C(=O)OC2
a: > 100 µM

* * *

testMethodNotes: Toxicity in Vero 76 cells, primary screen (Zika-089)
cond: monkey, Vero 76 cells, CC50, Visual (Toxicity)
measure: CC50

q: Returns the measured CC50 for the input molecule. Input: O=c1cnn([C@@H]2O[C@H](CO)[C@@H](O)[C@H]2O)c(=O)[nH]1
a: > 100 µg/mL

* * *

testMethodNotes: Cell Titer-Glo toxicity in C-33A cells (HPV16-15)
cond: human
measure: CC50

q: Returns the measured CC50 for the input compound. Input: COc1c(C)c2c(c(O)c1C/C=C(\C)CCC(=O)O)C(=O)OC2
a: > 150 µM

* * *

testMethodNotes: RNA Hybridization toxicity in HG23 cells (16-21)
Assay type: cell-based
cond: human, HG23 cells
measure: CC50

q: Returns the measured CC50 for the input compound. Input: COc1c(C)c2c(c(O)c1C/C=C(\C)CCC(=O)O)C(=O)OC2
a: > 100 µM

* * *

CC50 reference
testMethodNotes: in vitro
cond: dog

NC(=O)c1ncn([C@@H]2O[C@H](CO)[C@@H](O)[C@H]2O)n1 [Ribavirin]    > 320 µM

q: Returns the measured CC50 for the input compound. Input: COc1c(C)c2c(c(O)c1C/C=C(\C)CCC(=O)O)C(=O)OC2 [EP1601]
a: > 100 µM

* * *

Test system: Influenza A virus H1N1 California/07/2009
testMethodNotes: microbe, parasite or virus in culture
Type: cell-based
measure: pEC50
# pEC50 = -log10(concentration in molar units)

q: Returns the measured pEC50 for the input compound. Input: NC(=O)c1ncn([C@@H]2O[C@H](CO)[C@@H](O)[C@H]2O)n1
a: 5.39

* * *

Tested on: mouse norovirus (MNV-1)
testMethodNotes: Mouse norovirus CPE inhibition (NR), RAW264.7 (17-09)
Type: cell-based
cond: Norovirus
measure: EC50

q: Returns the measured EC50 for the input compound. Input: COc1c(C)c2c(c(O)c1C/C=C(\C)CCC(=O)O)C(=O)OC2
a: 123 nM

* * *

testMethodNotes: Neutral Red toxicity in Huh7 cells, 24 h pre-incubation (Zika-138)
cond: human
measure: CC50 (µg/mL)
Supply the numeric figure in µg/mL, leaving out any unit text.

q: Returns the measured CC50 for the input molecule. Input: COc1c(C)c2c(c(O)c1C/C=C(\C)CCC(=O)O)C(=O)OC2
a: 1.4

* * *

testMethodNotes: Cell Titer-Glo toxicity in C-33A cells (HPV16-15)
cond: human, C-33A cells
measure: CC50 (µM)
Supply the numeric figure in µM, leaving out any unit text.

q: Returns the measured CC50 for the input molecule. Input: Nc1nc2c(ncn2CCOCP(=O)(O)O)c(=O)[nH]1 [9-[2-(phosphonomethoxy)ethyl]guanine]
a: 141

* * *

testMethodNotes: Neutral Red toxicity in Vero 76 cells, 4 h pre-incubation (Zika-138)
cond: monkey
measure: CC50

q: Returns the measured CC50 for the input compound. Input: COc1c(C)c2c(c(O)c1C/C=C(\C)CCC(=O)O)C(=O)OC2
a: > 100 µg/mL

* * *

Tested on: HG23
testMethodNotes: NR toxicity in HG23 cells (17-14)
Format: cell-based
cond: NR (Tox)
measure: CC50

q: Recall the recorded CC50 for C[C@@]1(O)[C@H](O)[C@@H](CO)O[C@H]1n1ccc(N)nc1=O with HG23 and state it.
a: > 300 µM

* * *

testMethodNotes: Neutral Red toxicity in Vero 76 cells, secondary (Zika-094)
cond: monkey
measure: CC50 (µg/mL)
Supply the numeric figure in µg/mL, leaving out any unit text.

q: Returns the measured CC50 for the input molecule. Input: COc1c(C)c2c(c(O)c1C/C=C(\C)CCC(=O)O)C(=O)OC2
a: 2.3

* * *

testMethodNotes: Toxicity in Vero 76 cells, primary screen (Zika-089)
cond: monkey, CC50, Visual (Toxicity)
measure: CC50

q: Returns the measured CC50 for the input compound. Input: COc1c(C)c2c(c(O)c1C/C=C(\C)CCC(=O)O)C(=O)OC2 [EP1601]
a: > 100 µg/mL

* * *

Tested on: mouse norovirus (MNV-1)
testMethodNotes: Mouse norovirus CPE inhibition (NR), RAW264.7 (17-09)
Type: cell-based
measure: EC50
Field: value (include unit after the number)

q: Recall the recorded EC50 for C[C@@]1(O)[C@H](O)[C@@H](CO)O[C@H]1n1ccc(N)nc1=O with mouse norovirus (MNV-1) and state it.
a: 1 µM

* * *

testMethodNotes: Toxicity in Vero 76 cells, primary screen (Zika-089)
cond: monkey, CC50, Neutral Red (Toxicity)
measure: CC50 (µg/mL)
Supply the numeric figure in µg/mL, leaving out any unit text.

q: Returns the measured CC50 for the input compound. Input: COc1c(C)c2c(c(O)c1C/C=C(\C)CCC(=O)O)C(=O)OC2
a: 14

* * *

Tested on: HG23
testMethodNotes: RNA Hybridization toxicity in HG23 cells (16-21)
Type: cell-based
measure: CC50

q: Returns the measured CC50 for the input compound. Input: C[C@@]1(O)[C@H](O)[C@@H](CO)O[C@H]1n1ccc(N)nc1=O
a: > 300 µM

* * *

testMethodNotes: Neutral Red toxicity in Vero 76 cells, 24 h pre-incubation (Zika-138)
cond: monkey
measure: CC50
Field: value (include unit after the number)

q: Returns the measured CC50 for the input compound. Input: COc1c(C)c2c(c(O)c1C/C=C(\C)CCC(=O)O)C(=O)OC2 [EP1601]
a: 37 µg/mL

* * *

testMethodNotes: NR toxicity in RAW264.7 cells (17-09)
cond: mouse
measure: CC50 (µM)
Supply the numeric figure in µM, leaving out any unit text.

q: Returns the measured CC50 for the input compound. Input: COc1c(C)c2c(c(O)c1C/C=C(\C)CCC(=O)O)C(=O)OC2
a: 32

* * *

Tested on: human norovirus (NV, GT1)
testMethodNotes: Human norovirus replicon, qPCR, HG23, secondary (17-14)
Assay type: cell-based
measure: EC50 (µM)
Supply the numeric figure in µM, leaving out any unit text.

q: Recall the recorded EC50 for C[C@@]1(O)[C@H](O)[C@@H](CO)O[C@H]1n1ccc(N)nc1=O with human norovirus (NV, GT1) and state it.
a: 6

* * *

testMethodNotes: Neutral Red toxicity in Vero 76 cells, secondary (Zika-094)
cond: monkey, Vero 76 cells
measure: CC50 (µg/mL)
Supply the numeric figure in µg/mL, leaving out any unit text.

q: Returns the measured CC50 for the input compound. Input: O=c1cnn([C@@H]2O[C@H](CO)[C@@H](O)[C@H]2O)c(=O)[nH]1
a: 9.9

* * *

testMethodNotes: in vitro
cond: African green monkey
measure: CC50

q: Returns the measured CC50 for the input compound. Input: NC(=O)c1ncn([C@@H]2O[C@H](CO)[C@@H](O)[C@H]2O)n1
a: > 100 µM

* * *

testMethodNotes: Toxicity in A549 cells (ADV-0172)
Format: cell-based
cond: human, A549 cells, Neutral Red (Toxicity)
measure: CC50
Field: value (include unit after the number)

q: Returns the measured CC50 for the input molecule. Input: COc1c(C)c2c(c(O)c1C/C=C(\C)CCC(=O)O)C(=O)OC2 [EP1601]
a: 12 µg/mL

* * *

testMethodNotes: Neutral Red toxicity in Huh7 cells, 4 h pre-incubation (Zika-138)
cond: human
measure: CC50

q: Returns the measured CC50 for the input compound. Input: COc1c(C)c2c(c(O)c1C/C=C(\C)CCC(=O)O)C(=O)OC2
a: > 100 mg/L

* * *

testMethodNotes: NR toxicity in HG23 cells (17-14)
Format: cell-based
cond: human, HG23 cells, NR (Tox)
measure: CC50 (µM)
Supply the numeric figure in µM, leaving out any unit text.

q: Returns the measured CC50 for the input compound. Input: COc1c(C)c2c(c(O)c1C/C=C(\C)CCC(=O)O)C(=O)OC2 [EP1601]
a: 64
